Cited source: paper PMC4618635

molecular target: hERG potassium channel (Homo sapiens, UniProt Q12809, Y652A); assay: whole-cell patch clamp, CHO cells transiently expressing Y652A hERG
Sequence (Q12809 whole entry Y652A): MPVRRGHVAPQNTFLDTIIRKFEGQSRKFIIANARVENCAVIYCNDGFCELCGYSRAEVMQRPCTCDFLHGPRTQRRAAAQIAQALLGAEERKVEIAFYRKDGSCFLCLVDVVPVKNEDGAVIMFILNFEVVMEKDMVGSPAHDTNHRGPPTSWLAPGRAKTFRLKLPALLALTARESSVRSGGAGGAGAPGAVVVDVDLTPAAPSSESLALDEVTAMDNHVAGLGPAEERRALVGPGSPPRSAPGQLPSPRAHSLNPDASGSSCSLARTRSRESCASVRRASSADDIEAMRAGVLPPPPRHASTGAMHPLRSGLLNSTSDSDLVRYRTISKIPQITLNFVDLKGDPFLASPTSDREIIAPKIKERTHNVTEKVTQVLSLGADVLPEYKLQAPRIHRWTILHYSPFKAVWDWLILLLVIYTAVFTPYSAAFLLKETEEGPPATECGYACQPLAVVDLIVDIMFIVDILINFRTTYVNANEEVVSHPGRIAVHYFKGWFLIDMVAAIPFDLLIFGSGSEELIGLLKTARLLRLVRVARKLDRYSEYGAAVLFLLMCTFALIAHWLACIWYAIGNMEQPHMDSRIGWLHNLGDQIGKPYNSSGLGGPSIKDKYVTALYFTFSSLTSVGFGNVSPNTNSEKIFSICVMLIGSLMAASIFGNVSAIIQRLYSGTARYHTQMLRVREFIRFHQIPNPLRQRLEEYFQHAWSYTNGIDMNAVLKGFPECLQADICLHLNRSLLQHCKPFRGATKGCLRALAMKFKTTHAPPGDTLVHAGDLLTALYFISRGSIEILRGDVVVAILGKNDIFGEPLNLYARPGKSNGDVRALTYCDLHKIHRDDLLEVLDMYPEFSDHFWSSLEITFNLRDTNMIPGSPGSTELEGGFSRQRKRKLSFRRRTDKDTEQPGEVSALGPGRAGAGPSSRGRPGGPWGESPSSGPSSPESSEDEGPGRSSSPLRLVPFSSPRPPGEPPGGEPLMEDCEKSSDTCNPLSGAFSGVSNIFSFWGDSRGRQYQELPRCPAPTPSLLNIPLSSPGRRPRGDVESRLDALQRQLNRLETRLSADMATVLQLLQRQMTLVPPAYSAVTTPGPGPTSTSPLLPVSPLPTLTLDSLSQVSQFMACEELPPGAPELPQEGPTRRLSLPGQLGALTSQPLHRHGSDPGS
REPORTED_ENDPOINT: pIC50
Remember the convention: pIC50 equals -log10 of concentration in molar.

Fill in: pIC50 of Cc1cccc(C)c1OCC(C)N (stereo not shown) [mexiletine] is ___
4.38

* * *

target: hERG potassium channel (Homo sapiens); assay: whole-cell patch clamp, HEK cells stably expressing hERG, tail current block
REPORTED_ENDPOINT: pIC50
Remember the convention: pIC50 equals -log10 of concentration in molar.

Fill in: pIC50 of Cc1cccc(C)c1OCC(C)N (stereo not shown) [mexiletine] is ___
5.43
